As shown below, each of these compounds has a reported pIC50 value.
system.tested: SHV-5 (Klebsiella pneumoniae, UniProt P0A3M1)
Sequence (P0A3M1 22-286): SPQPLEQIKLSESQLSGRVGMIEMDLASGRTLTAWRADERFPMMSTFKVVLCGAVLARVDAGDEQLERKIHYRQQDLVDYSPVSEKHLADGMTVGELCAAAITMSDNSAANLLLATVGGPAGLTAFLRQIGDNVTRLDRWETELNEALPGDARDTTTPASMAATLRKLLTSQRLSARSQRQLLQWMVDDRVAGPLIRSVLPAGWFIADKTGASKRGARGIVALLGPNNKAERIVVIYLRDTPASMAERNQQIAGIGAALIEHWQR
assay.name: β-Lactamase inhibition, SHV-5 (cefotaxime substrate)
pIC50: −log10 of the molar value.

Previously resolved entries follow.
N[C@@H]1CC[C@@H](C(=O)N[C@H]2Cc3cccc(C(=O)O)c3OB2O)C[C@H]1N (mixture of isomers)
5.00 to 6.00
N[C@H]1CC(C(=O)N[C@H]2Cc3cccc(C(=O)O)c3OB2O)C[C@@H]1N (mixture of isomers)
6.00 to 7.00

Switching to the query record.
**Q:** Give me measured pIC50, please, for this compound: NC[C@@H]1CC[C@@H](CC(=O)N[C@H]2Cc3cccc(C(=O)O)c3OB2O)C[C@H]1CN (mixture of isomers)
**A:** > 7.00

* * *

System: K.P. 156319 KPC-3
assay.name: Broth microdilution MIC, K. pneumoniae 156319
Assay type: cell-based
recorded.conditions: Klebsiella pneumoniae; fixed meropenem 4 μg/mL, CAMHB, 16-20 hours 37° C.; read-out: MIC of exemplary compounds in presence of fixed β-lactams, Fixed Mero, K.P. 156319 KPC-3
quantity: MIC

Previously resolved entries follow.
N[C@H]1CC[C@H](C(=O)N[C@H]2Cc3cccc(C(=O)O)c3OB2O)CC1 [Example 2]
< 4 µg/mL
CS(=O)(=O)NCCN[C@H]1CC[C@H](CC(=O)N[C@H]2Cc3cccc(C(=O)O)c3OB2O)CC1 [Example 49]
< 4 µg/mL
NCCN[C@H]1CC[C@@H](CC(=O)N[C@H]2Cc3cccc(C(=O)O)c3OB2O)CC1 [Example 46]
< 4 µg/mL
N[C@H](CO)CN[C@H]1CC[C@H](CC(=O)N[C@H]2Cc3cccc(C(=O)O)c3OB2O)CC1 [Example 67]
< 4 µg/mL
N=C(N)N[C@H]1CC[C@H](CCC(=O)N[C@H]2Cc3cccc(C(=O)O)c3OB2O)CC1 [Example 22]
< 4 µg/mL

Switching to the query record.
**Q:** Give me measured MIC, please, for this molecule: N[C@H]1CC[C@H](NCC(=O)N[C@H]2Cc3cccc(C(=O)O)c3OB2O)CC1 [Example 45]
**A:** < 4 µg/mL

* * *

Test system: P. aerug. Ps296 VIM-2
assay.name: Broth microdilution MIC, P. aeruginosa Ps296
Type: cell-based
recorded.conditions: Pseudomonas aeruginosa; fixed meropenem 4 μg/mL, CAMHB, 16-20 hours 37° C.; read-out: MIC of exemplary compounds in presence of fixed β-lactams, Fixed Mero, P. aerug. Ps296 VIM-2
As shown below, each of these compounds has a reported MIC value.

Previously resolved entries follow.
CN1CCN([C@H]2CC[C@H](CC(=O)N[C@H]3Cc4cccc(C(=O)O)c4OB3O)CC2)C1=N [Example 52]
> 32 µg/mL
CN(C)C[C@H]1CC[C@H](CC(=O)N(C)[C@H]2Cc3cccc(C(=O)O)c3OB2O)CC1 [Example 8]
8 to 32 µg/mL
O=C(C[C@H]1CC[C@H](NCCNCCO)CC1)N[C@H]1Cc2cccc(C(=O)O)c2OB1O [Example 61]
< 4 µg/mL
NCCNC1CCC(O)(CC(=O)N[C@H]2Cc3cccc(C(=O)O)c3OB2O)CC1 (some centres unmarked) [Example 43]
< 4 µg/mL
NCCNC(=O)NCCN(C(=O)NCCN)C1CC(CC(=O)N[C@H]2Cc3cccc(C(=O)O)c3OB2O)C1 (some centres unmarked) [Example 57]
< 4 µg/mL

**Q:** Give me measured MIC, please, for this compound: NCCN[C@H]1CC[C@H](CC(=O)N[C@@H]2Cc3cccc(C(=O)O)c3OB2O)CC1 [Example 50]
**A:** < 4 µg/mL

**Q:** Give me measured MIC, please, for this compound: N[C@H]1CC[C@H](CC(=O)N[C@H]2Cc3cccc(C(=O)O)c3OB2O)CC1 [Example 6]
**A:** < 4 µg/mL

**Q:** Give me measured MIC, please, for this compound: NC[C@H]1CC[C@H](C(=O)N[C@H]2Cc3cccc(C(=O)O)c3OB2O)CC1 [Example 1]
**A:** < 4 µg/mL

* * *

system.tested: KPC-2 (Klebsiella pneumoniae, UniProt Q9F663)
Sequence (Q9F663 25-293 limits assumed): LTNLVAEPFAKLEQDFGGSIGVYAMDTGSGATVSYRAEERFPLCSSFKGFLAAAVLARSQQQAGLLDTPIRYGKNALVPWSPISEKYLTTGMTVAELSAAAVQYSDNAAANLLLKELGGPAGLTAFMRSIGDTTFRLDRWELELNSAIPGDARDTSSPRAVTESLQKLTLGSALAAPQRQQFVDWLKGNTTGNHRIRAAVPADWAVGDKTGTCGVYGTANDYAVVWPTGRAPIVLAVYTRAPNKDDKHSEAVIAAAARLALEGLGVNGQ
assay.name: β-Lactamase inhibition, KPC-2 (imipenem substrate)
Description: For SHV-5, Kpc-2, p99AmpC and OXA-1 β-lactamases, E. coli BL21 (DE3) bacterial cells carrying expression plasmids (expressed as native untagged proteins) for the individual β-lactamases were grown in 1 L of Superbroth (Teknova Inc. Hollister, Calif.) supplemented with 100 μg/ml kanamycin selection and 1×5052 (0.5% glycerol, 0.05% glucose and 0.2% α-lactose) at 35° C. for 18-20 hours. […]
quantity: IC50

Previously resolved entries follow.
NC[C@@H]1CC[C@@H](CC(=O)N[C@H]2Cc3cccc(C(=O)O)c3OB2O)C[C@H]1CN (mixture of isomers)
< 100 nM
N[C@@H]1CC[C@@H](C(=O)N[C@H]2Cc3cccc(C(=O)O)c3OB2O)C[C@H]1N (mixture of isomers)
100 to 1000 nM

Switching to the query record.
**Q:** Give me measured IC50, please, for this compound: N[C@H]1CC(C(=O)N[C@H]2Cc3cccc(C(=O)O)c3OB2O)C[C@@H]1N (mixture of isomers)
**A:** < 100 nM

* * *

System: K.P. 156319 KPC-3
assay.name: Broth microdilution MIC, K. pneumoniae 156319
Format: cell-based
recorded.conditions: Klebsiella pneumoniae; fixed meropenem 4 μg/mL, CAMHB, 16-20 hours 37° C.; read-out: MIC of exemplary compounds in presence of fixed β-lactams, Fixed Mero, K.P. 156319 KPC-3
quantity: MIC

Previously resolved entries follow.
NCCN[C@H]1CC[C@H](CC(=O)N[C@H]2Cc3cccc(C(=O)O)c3OB2O)CC1
< 4 µg/mL
O=C(CC1CCCCC1)N[C@H]1Cc2cccc(C(=O)O)c2OB1O
8 to 32 µg/mL

Switching to the query record.
**Q:** Give me measured MIC, please, for this molecule: O=C(C[C@H]1CC[C@H](NCc2cccnc2)CC1)N[C@H]1Cc2cccc(C(=O)O)c2OB1O
**A:** < 4 µg/mL

* * *

Tested on: P. aerug. Ps296 VIM-2
assay.name: Broth microdilution MIC, P. aeruginosa Ps296
Assay type: cell-based
recorded.conditions: Pseudomonas aeruginosa; fixed meropenem 4 μg/mL, CAMHB, 16-20 hours 37° C.; read-out: MIC of exemplary compounds in presence of fixed β-lactams, Fixed Mero, P. aerug. Ps296 VIM-2
quantity: MIC

**Q:** Give me measured MIC, please, for this molecule: CN(CCN)[C@H]1CC[C@H](CC(=O)N[C@H]2Cc3cccc(C(=O)O)c3OB2O)CC1
**A:** < 4 µg/mL

**Q:** Give me measured MIC, please, for this molecule: NC[C@H]1CC[C@H](CC(=O)N[C@H]2Cc3cccc(C(=O)O)c3OB2O)CC1
**A:** < 4 µg/mL

**Q:** Give me measured MIC, please, for this molecule: CS(=O)(=O)NCCN[C@H]1CC[C@H](CC(=O)N[C@H]2Cc3cccc(C(=O)O)c3OB2O)CC1
**A:** 8 to 32 µg/mL

**Q:** Give me measured MIC, please, for this molecule: CNCCN[C@H]1CC[C@H](C(CO)C(=O)N[C@H]2Cc3cccc(C(=O)O)c3OB2O)CC1 (stereo partly shown)
**A:** < 4 µg/mL

**Q:** Give me measured MIC, please, for this molecule: O=C(C[C@H]1CC[C@H](NCc2cccnc2)CC1)N[C@H]1Cc2cccc(C(=O)O)c2OB1O
**A:** 8 to 32 µg/mL

* * *

system.tested: VIM-2 (Escherichia coli)
assay.name: β-Lactamase inhibition, VIM-2 (nitrocefin substrate)
pIC50: −log10 of the molar value.
quantity: pIC50

Previously resolved entries follow.
N[C@@H]1CC[C@@H](C(=O)N[C@H]2Cc3cccc(C(=O)O)c3OB2O)C[C@H]1N (mixture of isomers)
> 7.00
N[C@H]1CC(C(=O)N[C@H]2Cc3cccc(C(=O)O)c3OB2O)C[C@@H]1N (mixture of isomers)
> 7.00

Switching to the query record.
**Q:** Write down the reported pIC50 (system: VIM-2 (Escherichia coli)) of NC[C@@H]1CC[C@@H](CC(=O)N[C@H]2Cc3cccc(C(=O)O)c3OB2O)C[C@H]1CN (mixture of isomers)
**A:** > 7.00

* * *

System: P. aerug. Ps296 VIM-2
assay.name: Broth microdilution MIC, P. aeruginosa Ps296
Assay type: cell-based
recorded.conditions: Pseudomonas aeruginosa; fixed meropenem 4 μg/mL, CAMHB, 16-20 hours 37° C.; read-out: MIC of exemplary compounds in presence of fixed β-lactams, Fixed Mero, P. aerug. Ps296 VIM-2
quantity: MIC

Previously resolved entries follow.
O=C(C[C@H]1CC[C@H](NCc2ccccn2)CC1)N[C@H]1Cc2cccc(C(=O)O)c2OB1O
8 to 32 µg/mL
N[C@H]1CC[C@H](NCC(=O)N[C@H]2Cc3cccc(C(=O)O)c3OB2O)CC1
8 to 32 µg/mL
O=C(CC1CCC(NC2CNC2)CC1)N[C@H]1Cc2cccc(C(=O)O)c2OB1O (some centres unmarked)
< 4 µg/mL

**Q:** Write down the reported MIC (system: P. aerug. Ps296 VIM-2) of O=C(CC1CCCCC1)N[C@H]1Cc2cccc(C(=O)O)c2OB1O
**A:** 8 to 32 µg/mL

**Q:** Write down the reported MIC (system: P. aerug. Ps296 VIM-2) of C[C@H](N)CNCCN[C@H]1CC[C@H](CC(=O)N[C@H]2Cc3cccc(C(=O)O)c3OB2O)CC1
**A:** 8 to 32 µg/mL

**Q:** Write down the reported MIC (system: P. aerug. Ps296 VIM-2) of O=C(C[C@H]1CC[C@H](NCCO)CC1)N[C@H]1Cc2cccc(C(=O)O)c2OB1O
**A:** < 4 µg/mL

**Q:** Write down the reported MIC (system: P. aerug. Ps296 VIM-2) of N[C@H]1CC[C@H](CCC(=O)N[C@H]2Cc3cccc(C(=O)O)c3OB2O)CC1
**A:** 8 to 32 µg/mL

**Q:** Write down the reported MIC (system: P. aerug. Ps296 VIM-2) of N[C@H]1CC(CC(=O)N[C@H]2Cc3cccc(C(=O)O)c3OB2O)C[C@@H]1N
**A:** < 4 µg/mL
